B1: HDV Ribozyme (parent)
chain: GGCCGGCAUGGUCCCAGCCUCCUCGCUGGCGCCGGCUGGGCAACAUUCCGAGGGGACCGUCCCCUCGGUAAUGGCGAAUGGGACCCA

Variants of: B1
Experiment: self-cleavage, relative activity (ratio to wild type); higher = more cleavage; co-transcriptional
Please use the following self-cleavage ranges when assigning a class: lower band: < 0.1; central band: ≥ 0.1 and < 0.6; upper band: ≥ 0.6

Solved entries (count: 6):
{"columns": ["variant", "assigned category"],
 "data": [
  ["C32G G34C", "lower band"],
  ["C48U G52C", "upper band"],
  ["G2U G39C", "lower band"],
  ["G5U A51C", "central band"],
  ["C30U G68C", "central band"],
  ["G28C G29A", "lower band"]
]}

QUERY: // bin(item) where item = G59C G73A
RESULT: upper band

QUERY: Repeat with A8U U23C
RESULT: central band

QUERY: Repeat with G52U C62G
RESULT: central band

QUERY: Repeat with G50U G55U
RESULT: upper band

QUERY: Repeat with U12A A51G
RESULT: central band

Each recorded value in this set is attributed to the RNAGym collection of RNA variant scans (doi:10.7554/elife.80360).
